All figures here come from patent US20260132197A1.

# tested on: T1, wild type human CD47 (Acro Biosystems, cat. no. CD7-H5227) (human, UniProt Q08722 19-139)
# T1 construct: Bought protein used as SPR analyte; also called Human CD47 wt; wild-type CD47
# T1 sequence (Q08722 19-139 limits assumed): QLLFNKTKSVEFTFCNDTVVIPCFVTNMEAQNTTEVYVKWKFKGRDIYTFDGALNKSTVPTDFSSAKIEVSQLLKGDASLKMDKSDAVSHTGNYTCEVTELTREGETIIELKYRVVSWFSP
# assay text: SPR, IgG captured, CD47 in flow; exp 3;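 also: other target is a CD47 mutein carrying C33G, used to obtain true monovalent affinity, with kon and koff fitted from SPR binding curves and KD derived from both rates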
pKd: −log10 of the molar value.
Here the recorded pKd is given for each entry.

{"columns": ["binder", "pKd"],
 "data": [
  ["108VH10.Mk / 108VL10.Me (antibody, V domains shown, 4D5-framework series; also called VH10.Mk VL10.Me) VH: EVQLVESGGGLVQPGGSLRLSCAASGFTFSHHWIHWVRQAPGKGLEWVAMIDASDSETRLSQKVKDRFTISADTSKNTAYLQMNSLRAEDTAVYYCSRLGRYYFDYWGQGTLVTVSS VL: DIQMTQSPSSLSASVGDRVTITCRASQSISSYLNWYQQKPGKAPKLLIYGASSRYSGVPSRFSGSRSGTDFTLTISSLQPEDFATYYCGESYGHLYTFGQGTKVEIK", 8.05],
  ["108VH10.Mh / 108VL10.Me (antibody, V domains shown, 4D5-framework series; constant regions not restated for this series; also called VH10.Mh VL10.Me) VH: EVQLVESGGGLVQPGGSLRLSCAASGFTFSHHWIHWVRQAPGKGLEWVAMIDASDSETRLVQKFKDRFTISADTSKNTAYLQMNSLRAEDTAVYYCSRLGRYYFDYWGQGTLVTVSS VL: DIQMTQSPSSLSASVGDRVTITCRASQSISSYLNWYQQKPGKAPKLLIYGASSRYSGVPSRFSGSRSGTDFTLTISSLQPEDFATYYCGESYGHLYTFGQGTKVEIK", 7.77]
]}
